TARGET_SYSTEM: Human sputum neutrophil elastase (Homo sapiens)
Sequence (P08246 30-247 limits assumed): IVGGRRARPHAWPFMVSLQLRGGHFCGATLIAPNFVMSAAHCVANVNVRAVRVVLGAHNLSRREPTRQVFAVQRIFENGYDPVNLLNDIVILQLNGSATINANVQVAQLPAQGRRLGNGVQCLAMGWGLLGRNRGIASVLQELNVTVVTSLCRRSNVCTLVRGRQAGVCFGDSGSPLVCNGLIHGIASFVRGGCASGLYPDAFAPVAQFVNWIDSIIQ
ASSAY_PROTOCOL: Inhibitor IC50 against human neutrophil elastase (fluorogenic MeOSuc-AAPV-AMC substrate)
MEASUREMENT_PARAMETERS: 20 min preincubation, read-out: HNE IC50
pIC50: −log10 of the molar value.
Measured pIC50, listed per entry.

# example entries with known answers
In: Checklist item: pIC50 tested on Human sputum neutrophil elastase (Homo sapiens), entry CCc1cccc2nc(-c3cccnc3N3CC[N+](C)(CC(N)=O)CC3)oc(=O)c12 , value?
Out: > 7.82

In: Try this compound too: C#CCCN1CCN(c2ncccc2-c2nc3cc(OC)cc(CC)c3c(=O)o2)CC1
Out: > 7.82

In: Try this compound too: CCc1cc(OC)cc2nc(-c3cccnc3N3CC[C@@H](N(CCO)CCO)C3)oc(=O)c12
Out: > 7.82

Continuing:
In: Checklist item: pIC50 tested on Human sputum neutrophil elastase (Homo sapiens), entry Cc1cccc2nc(-c3cccnc3OCCOCCOCCOCCOc3ncccc3-c3nc4cccc(C)c4c(=O)o3)oc(=O)c12 , value?
Out: 6.82 to 7.21

In: Try this compound too: CSc1ncccc1-c1nc2cccc(C)c2c(=O)o1
Out: 6.82 to 7.21

In: Try this compound too: CCc1cc(OC)cc2nc(-c3cccnc3N3CCN(c4ccncc4)CC3)oc(=O)c12
Out: > 7.82

In: Try this compound too: CCCN1CCN(c2ncccc2-c2nc3cc(OC)cc(CC)c3c(=O)o2)CC1
Out: 7.22 to 7.80

In: Try this compound too: CCc1cc(OC)cc2nc(-c3cccnc3N3CCN(c4cccnc4)CC3)oc(=O)c12
Out: > 7.82

In: Try this compound too: O=c1oc(-c2cccnc2Oc2ccccc2)nc2cc(Cl)cc(Cl)c12
Out: < 6.82

In: Try this compound too: Cc1ccc(Sc2ncccc2-c2nc3cccc(Cl)c3c(=O)o2)cc1
Out: 6.82 to 7.21

In: Try this compound too: Cc1cccc2nc(-c3cccnc3N3CC[C@H](N(C)C)C3)oc(=O)c12
Out: 7.22 to 7.80

In: Try this compound too: CCc1cc(OC)cc2nc(-c3cccnc3N(C)C3CCN(C)C3)oc(=O)c12 (centres unmarked)
Out: 7.22 to 7.80

In: Try this compound too: COc1cc(C2CC2)c2c(=O)oc(-c3cccnc3N3CCN(CC4CC4)CC3)nc2c1
Out: 6.82 to 7.21

In: Try this compound too: CCc1cc(OC)cc2nc(-c3cccnc3N3CCN(CCCC#N)CC3)oc(=O)c12
Out: 7.22 to 7.80

In: Try this compound too: Cc1cccc2nc(-c3cccnc3N3CC[C@@H](N(C)C)C3)oc(=O)c12
Out: 7.22 to 7.80

In: Try this compound too: CCc1cc(OC)cc2nc(-c3cccnc3N3CCN(c4ccccn4)CC3)oc(=O)c12
Out: > 7.82

In: Try this compound too: CCc1cccc2nc(-c3cccnc3N(C)C3CCN(C)C3)oc(=O)c12 (centres unmarked)
Out: 7.22 to 7.80

* * *

TARGET_SYSTEM: Human sputum neutrophil elastase (Homo sapiens)
Construct: purchased Elastin Products Co; host or cells: human sputum (natural source)
ASSAY_PROTOCOL: Inhibitor IC50 against human neutrophil elastase (fluorogenic MeOSuc-AAPV-AMC substrate)
Type: biochemical
MEASUREMENT_PARAMETERS: 20 min preincubation, read-out: HNE IC50
pIC50: −log10 of the molar value.
TEST_READOUT: pIC50

# example entries with known answers
In: Checklist item: pIC50 tested on Human sputum neutrophil elastase (Homo sapiens), entry CCc1cc(OC)cc2nc(-c3cccnc3N(C)CCN(C)C)oc(=O)c12 , value?
Out: > 7.82

In: Try this compound too: Cc1cccnc1-c1nc2cccc(Cl)c2c(=O)o1
Out: 7.22 to 7.80

In: Try this compound too: CCc1cccc2nc(-c3cccnc3-n3ccnc3)oc(=O)c12
Out: > 7.82

In: Try this compound too: CCc1cc(OC)cc2nc(-c3cccnc3N3CCC(CCCC(=O)O)CC3)oc(=O)c12
Out: 7.22 to 7.80

In: Try this compound too: Cc1cccc2nc(-c3cccnc3Oc3ccc(F)cc3)oc(=O)c12
Out: 7.22 to 7.80

Continuing:
In: Checklist item: pIC50 tested on Human sputum neutrophil elastase (Homo sapiens), entry CCc1cccc2nc(-c3cccnc3N3CC[N+](C)(C)CC3)oc(=O)c12 , value?
Out: > 7.82

In: Try this compound too: COc1cccc2nc(-c3ncccc3-n3ccnc3)oc(=O)c12
Out: < 6.82

In: Try this compound too: Cc1cccc2nc(-c3cccnc3N3CCN(C)C(C)C3)oc(=O)c12 (stereo not drawn)
Out: < 6.82

In: Try this compound too: CCc1cc(OC)cc2nc(-c3cccnc3N(C)CC3CCN(C)CC3)oc(=O)c12
Out: > 7.82

* * *

TARGET_SYSTEM: Human sputum neutrophil elastase (Homo sapiens, UniProt P08246)
ASSAY_PROTOCOL: Inhibitor IC50 against human neutrophil elastase (fluorogenic MeOSuc-AAPV-AMC substrate)
MEASUREMENT_PARAMETERS: 20 min preincubation, read-out: HNE IC50
Protocol: Determination of Inhibitor IC50 Values Against Human Neutrophil Elastase Human sputum neutrophil elastase (Elastin Products Co.) was diluted into Assay Buffer A (200 mM Tris pH 7.4, 1 mg/ml BSA) to a working concentration of 0.55 U/ml. […] DMSO alone was used as the negative control. […] Fluorescence intensity versus inhibitor concentration was plotted and fit to the Hill equation to quantify IC50 values.
Measured IC50, listed per entry.

# example entries with known answers
In: Checklist item: IC50 tested on Human sputum neutrophil elastase (Homo sapiens, UniProt P08246), entry COc1cc(C2CCC2)c2c(=O)oc(-c3cccnc3N3CCC[C@H](C(=O)O)C3)nc2c1 [Compound 174] , value?
Out: > 150 nM

In: Try this compound too: CCc1cc(OC)cc2nc(-c3cccnc3N3CCN(CCOCCO)CC3)oc(=O)c12 [Compound 210]
Out: 16 to 60 nM

In: Try this compound too: CCc1cccc2nc(-c3cccnc3N3CCC(N(C)C)C3)oc(=O)c12 (stereo not shown) [Compound 85]
Out: < 15 nM

// moving on: another record for IC50
In: Checklist item: IC50 tested on Human sputum neutrophil elastase (Homo sapiens, UniProt P08246), entry CCc1cccc2nc(-c3cccnc3N3CC[N+](C)(CC4CC4)CC3)oc(=O)c12 [Compound 103] , value?
Out: < 15 nM

* * *

TARGET_SYSTEM: Human sputum neutrophil elastase (Homo sapiens)
ASSAY_PROTOCOL: Inhibitor IC50 against human neutrophil elastase (fluorogenic MeOSuc-AAPV-AMC substrate)
MEASUREMENT_PARAMETERS: 20 min preincubation, read-out: HNE IC50
pIC50: −log10 of the molar value.
Measured pIC50, listed per entry.

In: What value of pIC50 has been recorded for this entry: CCc1cc(OC)cc2nc(-c3cccnc3N3CCC(Cc4ccccc4)CC3)oc(=O)c12
Out: 6.82 to 7.21

In: Try this compound too: CCc1cc(OC)cc2nc(-c3cccnc3N3CC[C@@H](N(C)CCOC)C3)oc(=O)c12
Out: > 7.82

In: Try this compound too: COc1cc(C(C)C)c2c(=O)oc(-c3cccnc3-n3ccnc3)nc2c1
Out: 7.22 to 7.80

Continuing:
In: What value of pIC50 has been recorded for this entry: COC(=O)[C@H]1CCCN1c1ncccc1-c1nc2cccc(C)c2c(=O)o1
Out: 7.22 to 7.80

In: Try this compound too: COC(=O)[C@H]1CCCN1c1ncccc1-c1nc2cccc(OC)c2c(=O)o1
Out: < 6.82

In: Try this compound too: CCc1cc(OC)cc2nc(-c3cccnc3N3CCC(CN4CCOCC4)CC3)oc(=O)c12
Out: > 7.82

In: Try this compound too: C=CCN1C[C@@H](C)N(c2ncccc2-c2nc3cc(OC)cc(CC)c3c(=O)o2)C[C@H]1C
Out: > 7.82

In: Try this compound too: COc1cc(C(C)C)c2c(=O)oc(-c3cccnc3N(C)CCN(C)C)nc2c1
Out: 6.82 to 7.21
